Target: T1, recombinant human EGFR extracellular domain with 6xHis (human, UniProt P00533 25-645)
T1 construct: In-house produced; also called 6xHis EGFR ECD; soluble human EGFR ECD; not shown: 6xHis tag
Assay: SPR competition, competitor 992 corr
recorded endpoint: % inhibition (%)
# output: bare number, implied unit %

A selection of reference data follows.
binder="antibody 1254 (antibody, human IgG1, kappa, V domains shown, Chimeric IgG1 kappa; also called mAb 1254) VH: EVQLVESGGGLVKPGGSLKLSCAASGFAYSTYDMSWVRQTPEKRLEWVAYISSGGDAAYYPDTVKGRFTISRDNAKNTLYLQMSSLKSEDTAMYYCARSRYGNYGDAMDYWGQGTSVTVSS VL: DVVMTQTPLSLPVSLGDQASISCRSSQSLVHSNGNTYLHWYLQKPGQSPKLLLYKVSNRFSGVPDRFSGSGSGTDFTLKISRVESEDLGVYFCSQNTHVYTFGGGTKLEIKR" recorded_endpoint="% inhibition" observed=106
binder="antibody 1344 (antibody, human IgG1, kappa, V domains shown, Chimeric IgG1 kappa) VH: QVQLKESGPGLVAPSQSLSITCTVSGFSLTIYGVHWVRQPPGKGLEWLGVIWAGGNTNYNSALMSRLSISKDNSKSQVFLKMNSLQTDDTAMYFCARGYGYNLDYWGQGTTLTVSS VL: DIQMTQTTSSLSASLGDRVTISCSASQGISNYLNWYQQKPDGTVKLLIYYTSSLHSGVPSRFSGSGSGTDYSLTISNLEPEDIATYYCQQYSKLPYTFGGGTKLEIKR" recorded_endpoint="% inhibition" observed=9
binder="antibody 1320 (antibody, human IgG1, kappa, V domains shown, Chimeric IgG1 kappa) VH: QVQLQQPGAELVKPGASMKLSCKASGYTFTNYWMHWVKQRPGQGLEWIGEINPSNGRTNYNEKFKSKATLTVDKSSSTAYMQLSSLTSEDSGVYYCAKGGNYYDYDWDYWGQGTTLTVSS VL: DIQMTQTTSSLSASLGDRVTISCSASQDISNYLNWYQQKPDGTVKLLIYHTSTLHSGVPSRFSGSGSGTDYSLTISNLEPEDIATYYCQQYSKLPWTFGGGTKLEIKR" recorded_endpoint="% inhibition" observed=-27

QUERY: Dear colleague, please send me the reported % inhibition for antibody 1261 (antibody, human IgG1, kappa, V domains shown, Chimeric IgG1 kappa) VH: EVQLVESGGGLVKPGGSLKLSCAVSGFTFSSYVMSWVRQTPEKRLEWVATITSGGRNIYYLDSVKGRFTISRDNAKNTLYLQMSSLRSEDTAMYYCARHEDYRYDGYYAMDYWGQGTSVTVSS VL: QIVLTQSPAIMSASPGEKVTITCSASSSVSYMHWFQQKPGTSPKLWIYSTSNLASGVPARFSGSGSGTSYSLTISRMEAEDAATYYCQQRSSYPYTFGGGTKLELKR when you can.
RESULT: 14

QUERY: Dear colleague, please send me the reported % inhibition for antibody 1257 (antibody, human IgG1, kappa, V domains shown, Chimeric IgG1 kappa) VH: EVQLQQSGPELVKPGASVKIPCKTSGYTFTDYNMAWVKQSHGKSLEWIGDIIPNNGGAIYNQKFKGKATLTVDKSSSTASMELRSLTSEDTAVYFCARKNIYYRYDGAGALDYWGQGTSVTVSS VL: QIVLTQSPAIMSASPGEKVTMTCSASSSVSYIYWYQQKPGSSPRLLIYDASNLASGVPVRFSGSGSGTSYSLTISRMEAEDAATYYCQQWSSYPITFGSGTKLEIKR when you can.
RESULT: 16

QUERY: Dear colleague, please send me the reported % inhibition for antibody 1208 (antibody, human IgG1, kappa, V domains shown, Chimeric IgG1 kappa; also called clone 1208) VH: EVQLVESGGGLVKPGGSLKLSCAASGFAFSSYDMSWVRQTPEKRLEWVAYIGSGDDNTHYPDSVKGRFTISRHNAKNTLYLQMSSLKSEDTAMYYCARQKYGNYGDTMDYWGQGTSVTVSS VL: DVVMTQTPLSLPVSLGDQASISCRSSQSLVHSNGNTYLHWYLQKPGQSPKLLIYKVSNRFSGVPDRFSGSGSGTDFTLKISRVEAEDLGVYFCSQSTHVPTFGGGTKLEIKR when you can.
RESULT: 100

QUERY: Dear colleague, please send me the reported % inhibition for antibody 1308 (antibody, human IgG1, kappa, V domains shown, Chimeric IgG1 kappa) VH: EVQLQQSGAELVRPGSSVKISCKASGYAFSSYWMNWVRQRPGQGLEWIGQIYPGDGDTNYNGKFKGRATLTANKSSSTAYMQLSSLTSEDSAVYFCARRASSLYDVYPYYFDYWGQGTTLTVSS VL: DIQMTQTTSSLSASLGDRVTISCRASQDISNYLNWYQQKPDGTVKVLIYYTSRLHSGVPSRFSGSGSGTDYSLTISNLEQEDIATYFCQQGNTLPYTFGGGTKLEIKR when you can.
RESULT: -9

QUERY: Dear colleague, please send me the reported % inhibition for antibody 1260 (antibody, human IgG1, kappa, V domains shown, Chimeric IgG1 kappa) VH: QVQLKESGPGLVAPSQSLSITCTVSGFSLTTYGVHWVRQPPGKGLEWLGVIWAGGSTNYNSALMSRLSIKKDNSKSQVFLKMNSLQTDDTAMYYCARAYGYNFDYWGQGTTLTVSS VL: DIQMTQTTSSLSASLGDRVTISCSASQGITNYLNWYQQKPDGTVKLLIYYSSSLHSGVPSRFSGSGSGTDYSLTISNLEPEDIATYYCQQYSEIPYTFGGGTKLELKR when you can.
RESULT: -10

QUERY: Dear colleague, please send me the reported % inhibition for antibody 1347 (antibody, human IgG1, kappa, V domains shown, Chimeric IgG1 kappa) VH: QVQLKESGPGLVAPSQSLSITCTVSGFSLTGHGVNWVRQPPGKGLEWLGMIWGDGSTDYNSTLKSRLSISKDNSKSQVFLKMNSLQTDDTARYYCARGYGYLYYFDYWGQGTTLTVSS VL: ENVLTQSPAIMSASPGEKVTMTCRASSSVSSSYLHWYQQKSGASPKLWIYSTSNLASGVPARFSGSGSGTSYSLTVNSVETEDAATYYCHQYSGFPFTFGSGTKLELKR when you can.
RESULT: 7

QUERY: Dear colleague, please send me the reported % inhibition for antibody 1024 (antibody, human IgG1, kappa, V domains shown, Chimeric IgG1 kappa) VH: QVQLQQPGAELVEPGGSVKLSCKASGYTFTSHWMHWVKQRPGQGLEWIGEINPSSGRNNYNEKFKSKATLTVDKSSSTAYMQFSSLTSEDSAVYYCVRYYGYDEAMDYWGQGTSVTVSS VL: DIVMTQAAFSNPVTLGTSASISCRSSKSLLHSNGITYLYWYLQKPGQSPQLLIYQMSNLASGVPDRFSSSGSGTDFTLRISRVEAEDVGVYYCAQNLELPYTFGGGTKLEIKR when you can.
RESULT: -58
